assay.comment: CCTE_Simmons_MITO_basal_resp_rate: CCTE's HepG2 Seahorse XF Respirometric Screening Assay at Basal Respiratory State, Simmons Lab (AID 2284001)
reported.conditions: actives raise or lower the signal
Activity calls are given as the source filed them. Rule for the calls: active = hit-call score of the fitted dose curve at least 0.9, where 1 is the maximum; inactive = score below 0.9.
Possible outcomes: active, inactive

molecule: NC(=O)NN=Cc1ccc([N+](=O)[O-])o1
answer.label: active
//
molecule: CCN(CC)C(=S)SSC(=S)N(CC)CC
answer.label: inactive
//
molecule: CCOc1ccc2[nH]cc(C(=O)NCc3ccccc3)c(=O)c2n1
answer.label: inactive
//
molecule: O=C(NO)C1(NS(=O)(=O)c2ccc(Oc3ccc(F)cc3)cc2)CCOCC1
answer.label: active
//
molecule: CC(C)c1nnc2ccc(-c3ocnc3-c3cc(F)ccc3F)cn12
answer.label: active
//
molecule: CCCCCCCC1CCC(=O)O1 (stereo unspecified)
answer.label: active

====

assay.comment: LTEA_HepaRG_LDH_cytotoxicity: Cytotoxicity Assessment in the Life Technologies and Expression Analysis (LTEA) Assay (AID 2283563)
Activity calls are given as the source filed them. Rule for the calls: active = hit-call score of the fitted dose curve at least 0.9, where 1 is the maximum; inconclusive = response in the unintended direction; inactive = score below 0.9.
Labels: active, inactive

record.smiles: c1ccc2c(c1)-c1cccc3c1c-2cc1ccccc13
answer.label: inactive

record.smiles: CCCCCCCC/C=C\CCCCCCCC(=O)OC[C@@H](O)[C@H]1OC[C@H](O)[C@H]1O
answer.label: inactive

record.smiles: CCOC(N)=O
answer.label: inactive

record.smiles: C=CCc1cc(S(=O)(=O)c2ccc(O)c(CC=C)c2)ccc1O
answer.label: active

record.smiles: O=S(=O)(O)c1ccc(N=Nc2c(O)ccc3cc(S(=O)(=O)O)ccc23)cc1
answer.label: inactive

record.smiles: NC(=O)NN=Cc1ccc([N+](=O)[O-])o1
answer.label: inactive

record.smiles: O=C(O)[C@H](O)[C@@H](O)C(=O)O
answer.label: inactive

record.smiles: O=C(NO)C1(NS(=O)(=O)c2ccc(Oc3ccc(F)cc3)cc2)CCOCC1
answer.label: inactive

record.smiles: COc1cc2c(c(OC)c1OC)-c1ccc(OC)c(=O)cc1[C@@H](NC(C)=O)CC2
answer.label: inactive

record.smiles: CCCCCCCCN(C)C
answer.label: inactive

record.smiles: CCCCCCOC(=O)CC(CC(=O)OCCCCCC)(OC(=O)CCC)C(=O)OCCCCCC
answer.label: inactive

record.smiles: c1ccc(C(O[C@@H]2CCCN(CCc3ccc4c(c3)OCO4)C2)c2ccccc2)cc1
answer.label: active

record.smiles: C=CN1CCCC1=O
answer.label: inactive

record.smiles: Cn1c(=O)c2[nH]cnc2n(C)c1=O
answer.label: inactive

record.smiles: CCCCN1C(=O)[C@@H]([C@H](O)C2CCCCC2)NC(=O)C12CCN(Cc1ccc(Oc3ccc(C(=O)O)cc3)cc1)CC2
answer.label: active

====

Read-out: Vascular cell adhesion molecule 1 (VCAM1), VCAM1 (gene 7412)
assay.comment: BSK_CASM3C_VCAM1: BioMAP Diversity Plus: CASM3C Assay for Vascular cell adhesion molecule 1 (VCAM1) Biomarker Activity (AID 2283055);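 note: VCAM-1 protein level quantified by ELISA on the cells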
reported.conditions: primary human coronary artery smooth muscle cells; actives raise or lower the signal
Activity calls are given as the source filed them. Rule for the calls: active = hit-call score of the fitted dose curve at least 0.9, where 1 is the maximum; inactive = score below 0.9.
Possible outcomes: active, inactive

record.smiles: CCn1nc(C)c2c1C(=O)NCC(c1ccc(O)cc1)=N2
answer.label: inactive

record.smiles: CCOC(N)=O
answer.label: inactive

record.smiles: O=C(O)c1cccc(C[C@@H]2COc3ccc(OCc4nc5cc(F)ccc5s4)cc3[C@@H]2O)c1
answer.label: inactive

record.smiles: CCCOc1ccc(S(=O)(=O)N2CCN(CC)CC2)cc1-c1nc2c(CC)n(Cc3ccccn3)nc2c(=O)[nH]1
answer.label: inactive

record.smiles: FC(F)(F)COC(OCC(F)(F)F)OCC(F)(F)F
answer.label: inactive

record.smiles: NC(=O)NN=Cc1ccc([N+](=O)[O-])o1
answer.label: inactive

record.smiles: O=S(=O)(O)CCC(F)(F)C(F)(F)C(F)(F)C(F)(F)C(F)(F)C(F)(F)F
answer.label: inactive

record.smiles: CCN(CC)C(=S)SSC(=S)N(CC)CC
answer.label: active

record.smiles: Cc1cccc(O)c1C
answer.label: inactive

record.smiles: O=C1CN(N=Cc2ccc([N+](=O)[O-])o2)C(=O)N1
answer.label: inactive

record.smiles: C[C@@H](Oc1ccc(CNC(=O)c2cccnc2Oc2ccc3c(c2)OCO3)c(F)c1)C(=O)O
answer.label: inactive
